Biological target: Progesterone receptor (Bos taurus)
Sequence (Q690N0 whole entry): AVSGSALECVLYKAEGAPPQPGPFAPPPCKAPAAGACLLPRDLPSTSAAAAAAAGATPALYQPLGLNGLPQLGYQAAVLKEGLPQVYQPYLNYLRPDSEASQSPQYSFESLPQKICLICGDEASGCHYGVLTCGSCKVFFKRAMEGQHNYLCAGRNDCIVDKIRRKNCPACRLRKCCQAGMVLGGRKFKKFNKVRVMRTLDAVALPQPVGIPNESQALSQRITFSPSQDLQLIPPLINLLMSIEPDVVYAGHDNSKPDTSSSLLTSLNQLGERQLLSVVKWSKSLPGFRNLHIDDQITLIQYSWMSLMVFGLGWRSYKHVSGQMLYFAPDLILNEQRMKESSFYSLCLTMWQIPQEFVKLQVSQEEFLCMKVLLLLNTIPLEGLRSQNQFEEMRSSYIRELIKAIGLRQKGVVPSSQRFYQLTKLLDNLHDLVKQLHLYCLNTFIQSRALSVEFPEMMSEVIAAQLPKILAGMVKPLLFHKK
Assay: DRUGMATRIX: Progesterone radioligand binding (ligand: [3H] R-5020)
Assay type: tissue-based, Uterus
Details: Not Active = under 50% inhibition at 10 µM; read-out: IC50
readout: IC50 (nM)
Give a bare numeral; the unit nM is implied.

Please review the entries below; each comes with its answer.
{"columns": ["molecule", "IC50 (nM)"],
 "data": [
  ["CC1(C)O[C@@H]2C[C@H]3[C@@H]4C[C@H](F)C5=CC(=O)CC[C@]5(C)[C@H]4[C@@H](O)C[C@]3(C)[C@]2(C(=O)CO)O1 [FLURANDRENOLIDE]", 172],
  ["C#C[C@]1(O)CC[C@H]2[C@@H]3CCc4cc(OC)ccc4[C@H]3CC[C@@]21C", 84400],
  ["CC1(C)O[C@@H]2C[C@H]3[C@@H]4C[C@H](F)C5=CC(=O)C=C[C@]5(C)[C@@]4(F)[C@@H](O)C[C@]3(C)[C@]2(C(=O)CO)O1 [FLUOCINOLONE ACETONIDE]", 26],
  ["C[C@]12CC[C@@H]3c4ccc(O)cc4CC[C@H]3[C@@H]1CC[C@@H]2O", 32600],
  ["C#C[C@]1(OC(C)=O)CC[C@H]2[C@@H]3CCC4=CC(=O)CC[C@@H]4[C@H]3CC[C@@]21C [NORETHINDRONE ACETATE]", 28]
]}

Asked: Any idea what its IC50 is? The molecule is CC1(C)O[C@@H]2C[C@H]3[C@@H]4C[C@H](F)C5=CC(=O)C=C[C@]5(C)[C@H]4[C@@H](O)C[C@]3(C)[C@]2(C(=O)CO)O1 [FLUNISOLIDE]
Given back: 359

Asked: Any idea what its IC50 is? The molecule is C[C@]12CC[C@@H]3c4ccc(OC(=O)c5ccccc5)cc4CC[C@H]3[C@@H]1CC[C@@H]2O [ESTRADIOL BENZOATE]
Given back: 9610

----------
Biological target: Sigma non-opioid intracellular receptor 1 (Homo sapiens, UniProt Q99720)
Sequence (Q99720 whole entry): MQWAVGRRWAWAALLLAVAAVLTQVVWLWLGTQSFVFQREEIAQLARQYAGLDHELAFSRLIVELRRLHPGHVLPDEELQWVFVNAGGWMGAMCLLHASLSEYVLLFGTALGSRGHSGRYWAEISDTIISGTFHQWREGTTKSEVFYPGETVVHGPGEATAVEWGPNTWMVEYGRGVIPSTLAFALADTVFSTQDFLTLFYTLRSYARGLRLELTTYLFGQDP
Assay: DRUGMATRIX: Sigma1 radioligand binding (ligand: [3H] Haloperidol)
Format: cell membranes, Jurkat, Membrane
Conditions: Not Active = under 50% inhibition at 10 µM; read-out: Ki
readout: pKi
As a rule, pKi stands for the negative log10 of the concentration, concentration in M.

Please review the entries below; each comes with its answer.
{"columns": ["compound", "targetDesc", "pKi"],
 "data": [
  ["CC(C)NCC(O)COc1cccc2ccccc12 (stereo not drawn)", "Sigma non-opioid intracellular receptor 1 (Homo sapiens, UniProt Q99720)", 5.92],
  ["OC(CCN1CCCCC1)(c1ccccc1)C1CCCCC1 (stereo not drawn)", "Sigma non-opioid intracellular receptor 1 (Homo sapiens, UniProt Q99720)", 7.35]
]}

Let's switch to this compound now.
Asked: Any idea what its pKi is? The compound is CCCCOc1ccc(OCCCN2CCOCC2)cc1
Given back: 7.29

----------
Biological target: Tyrosine-protein kinase Fyn (Homo sapiens, UniProt P06241);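 further: enzymatic inhibition of Fyn kinase activity measured with Poly(Glu:Tyr) as the phosphorylation substrate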; further: in other assays of this panel Not Active means under 50% inhibition at 10 µM
Sequence (P06241 whole entry): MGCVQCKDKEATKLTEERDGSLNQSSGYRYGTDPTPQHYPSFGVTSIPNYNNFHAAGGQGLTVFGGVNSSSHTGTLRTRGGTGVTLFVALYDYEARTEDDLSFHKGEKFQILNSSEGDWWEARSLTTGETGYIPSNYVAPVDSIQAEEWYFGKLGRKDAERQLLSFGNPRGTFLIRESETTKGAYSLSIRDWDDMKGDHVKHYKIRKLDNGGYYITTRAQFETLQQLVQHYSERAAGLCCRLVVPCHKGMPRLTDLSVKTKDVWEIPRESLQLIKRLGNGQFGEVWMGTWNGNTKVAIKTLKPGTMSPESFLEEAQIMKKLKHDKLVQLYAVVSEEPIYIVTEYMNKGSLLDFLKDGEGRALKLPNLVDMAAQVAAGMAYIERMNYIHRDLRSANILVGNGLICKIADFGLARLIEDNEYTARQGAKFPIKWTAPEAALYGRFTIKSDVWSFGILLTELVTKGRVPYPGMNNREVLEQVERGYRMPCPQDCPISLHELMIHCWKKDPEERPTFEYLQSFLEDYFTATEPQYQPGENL
Experiment: biochemical
Assay type: cell-based, Insect cells
readout: IC50 (µM)
Give a bare numeral; the unit µM is implied.

Asked: Any idea what its IC50 is? The molecule is COc1cccc2c1C(=O)c1c(O)c3c(c(O)c1C2=O)C[C@@](O)(C(=O)CO)C[C@@H]3O[C@H]1C[C@H](N)[C@H](O)[C@H](C)O1
Given back: 5.15

----------
Target: UniProt:P29466
Sequence (P29466 120-297 limits assumed): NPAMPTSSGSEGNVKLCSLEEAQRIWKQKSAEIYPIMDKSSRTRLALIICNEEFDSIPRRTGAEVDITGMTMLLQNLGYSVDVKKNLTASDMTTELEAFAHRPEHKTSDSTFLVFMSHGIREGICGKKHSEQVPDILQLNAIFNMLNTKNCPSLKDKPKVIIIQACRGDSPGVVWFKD
Sequence (P29466 317-404 limits assumed): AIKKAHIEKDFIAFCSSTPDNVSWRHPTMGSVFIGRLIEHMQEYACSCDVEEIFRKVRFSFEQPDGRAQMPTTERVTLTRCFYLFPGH
Parameters: species or system Escherichia coli
readout: IC50

Please review the entries below; each comes with its answer.
{"columns": ["molecule", "IC50"],
 "data": [
  ["N=C(Nc1ccccc1)Nc1ccccc1", "Not Active"],
  ["C=CCN1CC[C@]23c4c5ccc(O)c4O[C@H]2C(=O)CC[C@@]3(O)[C@H]1C5 [NALOXONE]", "Not Active"],
  ["CCOC(=O)C1=C(C)NC(C)=C(C(=O)OC)C1c1cccc([N+](=O)[O-])c1 (stereo not given) [NITRENDIPINE]", "Not Active"],
  ["CC(=O)N[C@@H]1[C@H](Oc2c3cc4cc2Oc2ccc(cc2Cl)[C@@H](O[C@@H]2O[C@@H](CO)[C@@H](O)[C@H](O)[C@@H]2NC(C)=O)[C@@H]2NC(=O)[C@H](NC(=O)[C@@H]4NC(=O)[C@H]4NC(=O)[C@@H](Cc5ccc(c(Cl)c5)O3)NC(=O)[C@H](N)c3ccc(O)c(c3)Oc3cc(O)cc4c3)c3ccc(O)c(c3)-c3c(O[C@H]4O[C@H](CO)[C@@H](O)[C@@H](O)[C@@H]4O)cc(O)cc3[C@@H](C(=O)O)NC2=O)O[C@@H](CO)[C@@H](O)[C@@H]1O", "Not Active"]
]}

Let's switch to this molecule now.
Asked: Any idea what its IC50 is? The molecule is Cc1ccc(S(=O)(=O)NC(=O)NN2CC3CCCC3C2)cc1 (stereo not given) [GLICLAZIDE]
Given back: Not Active

----------
Target: 5-hydroxytryptamine receptor 2C (Homo sapiens, UniProt P28335)
Sequence (P28335 whole entry): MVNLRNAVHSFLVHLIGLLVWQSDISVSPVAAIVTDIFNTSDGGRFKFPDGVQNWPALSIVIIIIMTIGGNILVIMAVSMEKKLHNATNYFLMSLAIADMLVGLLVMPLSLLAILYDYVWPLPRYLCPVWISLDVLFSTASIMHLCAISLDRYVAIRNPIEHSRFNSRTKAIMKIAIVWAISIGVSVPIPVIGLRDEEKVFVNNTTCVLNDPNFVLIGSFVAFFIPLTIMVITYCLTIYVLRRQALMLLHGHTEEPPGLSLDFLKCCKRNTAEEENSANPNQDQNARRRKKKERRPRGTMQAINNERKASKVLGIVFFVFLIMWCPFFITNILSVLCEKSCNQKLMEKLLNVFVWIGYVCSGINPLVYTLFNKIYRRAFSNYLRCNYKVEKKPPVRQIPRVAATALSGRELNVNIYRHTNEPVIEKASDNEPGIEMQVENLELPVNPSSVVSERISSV
Assay: DRUGMATRIX: Serotonin (5-Hydroxytryptamine) 5-HT2C radioligand binding (ligand: [3H] Mesulergine)
Format: cell membranes, CHO-K1, Membrane
Conditions: cho-k1; Not Active = under 50% inhibition at 10 µM

{"columns": ["molecule", "targetDesc", "IC50"],
 "data": [
  ["CC1(C)O[C@@H]2C[C@H]3[C@@H]4C[C@H](F)C5=CC(=O)CC[C@]5(C)[C@H]4[C@@H](O)C[C@]3(C)[C@]2(C(=O)CO)O1 [FLURANDRENOLIDE]", "5-hydroxytryptamine receptor 2C (Homo sapiens, UniProt P28335)", "Not Active"],
  ["COc1cccc2c1C(=O)c1c(O)c3c(c(O)c1C2=O)C[C@@](O)(C(=O)CO)C[C@@H]3O[C@H]1C[C@H](N)[C@H](O)[C@H](C)O1", "5-hydroxytryptamine receptor 2C (Homo sapiens, UniProt P28335)", "Not Active"],
  ["CC(C)c1nc(CN(C)C(=O)N[C@H](C(=O)N[C@@H](Cc2ccccc2)C[C@H](O)[C@H](Cc2ccccc2)NC(=O)OCc2cncs2)C(C)C)cs1", "5-hydroxytryptamine receptor 2C (Homo sapiens, UniProt P28335)", "Not Active"]
]}

----------
Biological target: Nitric oxide synthase, inducible (Mus musculus, UniProt P29477); further: in other assays of this panel Not Active means under 50% inhibition at 10 µM;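 further: inhibition of iNOS enzyme activity measured with L-arginine as substrate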
Sequence (P29477 whole entry): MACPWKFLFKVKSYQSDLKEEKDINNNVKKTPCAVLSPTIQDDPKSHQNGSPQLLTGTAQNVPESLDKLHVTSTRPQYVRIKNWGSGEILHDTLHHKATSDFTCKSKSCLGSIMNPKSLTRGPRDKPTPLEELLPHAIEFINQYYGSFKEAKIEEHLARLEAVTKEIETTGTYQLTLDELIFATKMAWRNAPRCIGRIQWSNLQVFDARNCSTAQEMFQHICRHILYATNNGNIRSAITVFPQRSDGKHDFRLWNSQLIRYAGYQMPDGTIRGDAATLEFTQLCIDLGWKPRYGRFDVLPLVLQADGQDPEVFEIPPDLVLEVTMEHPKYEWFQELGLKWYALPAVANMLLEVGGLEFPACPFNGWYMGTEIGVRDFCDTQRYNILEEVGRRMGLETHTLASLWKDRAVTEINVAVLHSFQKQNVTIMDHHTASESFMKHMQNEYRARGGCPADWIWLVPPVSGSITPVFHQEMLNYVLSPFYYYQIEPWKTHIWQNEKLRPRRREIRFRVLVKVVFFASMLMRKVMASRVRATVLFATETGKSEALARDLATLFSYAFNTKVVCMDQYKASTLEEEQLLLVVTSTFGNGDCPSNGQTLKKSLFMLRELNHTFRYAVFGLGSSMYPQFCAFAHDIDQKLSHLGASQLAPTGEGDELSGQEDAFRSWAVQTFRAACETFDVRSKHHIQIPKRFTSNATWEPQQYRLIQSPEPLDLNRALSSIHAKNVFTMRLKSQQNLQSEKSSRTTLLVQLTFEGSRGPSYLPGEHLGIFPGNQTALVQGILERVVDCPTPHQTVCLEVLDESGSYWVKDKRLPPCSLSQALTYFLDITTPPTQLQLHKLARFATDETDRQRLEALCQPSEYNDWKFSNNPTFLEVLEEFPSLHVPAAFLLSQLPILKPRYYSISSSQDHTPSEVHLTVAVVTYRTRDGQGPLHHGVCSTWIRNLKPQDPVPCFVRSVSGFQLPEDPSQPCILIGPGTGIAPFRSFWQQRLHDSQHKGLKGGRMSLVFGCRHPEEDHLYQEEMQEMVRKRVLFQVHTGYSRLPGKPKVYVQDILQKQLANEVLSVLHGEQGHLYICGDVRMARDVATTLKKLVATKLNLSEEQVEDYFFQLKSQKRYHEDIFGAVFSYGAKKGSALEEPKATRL
Design: species or system Escherichia coli

{"columns": ["inputSmiles", "IC50"],
 "data": [
  ["CCOC(=O)[C@H](CCc1ccccc1)N[C@H]1CCc2ccccc2N(CC(=O)O)C1=O", "Not Active"],
  ["C#C[C@]1(O)CC[C@H]2[C@@H]3CCc4cc(OC)ccc4[C@H]3CC[C@@]21C", "Not Active"],
  ["[H]/N=C(/N)N[C@H]1[C@H](O)[C@@H](O)[C@H](O[C@@H]2O[C@@H](C)[C@](O)(C=O)[C@H]2O[C@@H]2O[C@@H](CO)[C@H](O)[C@@H](O)[C@@H]2NC)[C@@H](N/C(N)=N\\[H])[C@@H]1O", "Not Active"]
]}

----------
Experiment: DRUGMATRIX: Imidazoline I2, Central radioligand binding (ligand: [3H] Idazoxan)
Format: cell membranes, Rattus norvegicus, Wistar, Cerebral cortex, Membrane
Conditions: Not Active = under 50% inhibition at 10 µM
Where a SMILES comes first, the peptide text is derived from it. Bridges are numbered along the chain shown (N, C = ends). [ ]: non-standard residue; d: D form. The star is where a group is joined. Threoninol(2S,3R) = C[C@@H](O)[C@H](CO)N*
readout: IC50

Please review the entries below; each comes with its answer.
{"columns": ["compound", "valueObserved"],
 "data": [
  ["O=NN(CCCl)C(=O)NCCCl", "Not Active"],
  ["S=C=Nc1cccc2ccccc12 [1-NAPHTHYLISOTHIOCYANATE]", "Not Active"],
  ["CC(C)(C(=O)c1cccnc1)c1cccnc1", "Not Active"],
  ["CCCC(=O)Nc1ccc(OCC(O)CNC(C)C)c(C(C)=O)c1 (stereo unspecified)", "Not Active"],
  ["Cc1nccn1CC1CCc2c(c3ccccc3n2C)C1=O (stereo unspecified)", "Not Active"],
  ["CN1C(=O)COc2c(C(=O)NC3CN4CCC3CC4)cc(Cl)cc21 (stereo unspecified)", "Not Active"],
  ["CCCN(CCC)C(=O)C(CCC(=O)O)NC(=O)c1ccccc1 (stereo unspecified) [PROGLUMIDE]", "Not Active"],
  ["CCOC(=O)C(C)(C)Oc1ccc(Cl)cc1 [CLOFIBRATE]", "Not Active"]
]}

Asked: Any idea what its IC50 is? The compound is C[C@]12CC[C@@H]3c4ccc(OC(=O)c5ccccc5)cc4CC[C@H]3[C@@H]1CC[C@@H]2O [ESTRADIOL BENZOATE]
Given back: Not Active

Asked: Any idea what its IC50 is? The compound is Cc1cc2cc3c(C)cc(=O)oc3c(C)c2o1
Given back: Not Active

Asked: Any idea what its IC50 is? The compound is C[C@@H](O)[C@H](CO)NC(=O)[C@@H]1CSSC[C@H](NC(=O)[C@H](N)Cc2ccccc2)C(=O)N[C@@H](Cc2ccccc2)C(=O)N[C@H](Cc2c[nH]c3ccccc23)C(=O)N[C@@H](CCCCN)C(=O)N[C@@H]([C@@H](C)O)C(=O)N1 (H-[dF]CF[dW]KTC-{Threoninol(2S,3R)}; disulfide 2-7)
Given back: Not Active
